target-entity: Fuc(a1-2)Gal(b1-4)Fuc(a1-3)]GlcNAc(b1-2)Man(a1-3)[Fuc(a1-2)Gal(b1-4)[Fuc(a1-3)]GlcNAc(b1-2)Man(a1-6)]Man(b1-4)GlcNAc(b1-4)GlcNAc
assay-overview: glycan array binding signal (z-score within array); higher = stronger binding
settings: glycan notation: IUPAC condensed, linker removed
This excerpt belongs to a sample that is enriched for the strongest signals.
parameter-measured: glycan array binding signal (z-score)
Lab note: write the figure by itself, no unit.

Answered cases to consult:
binder: Epa21 (Candida glabrata) (protein) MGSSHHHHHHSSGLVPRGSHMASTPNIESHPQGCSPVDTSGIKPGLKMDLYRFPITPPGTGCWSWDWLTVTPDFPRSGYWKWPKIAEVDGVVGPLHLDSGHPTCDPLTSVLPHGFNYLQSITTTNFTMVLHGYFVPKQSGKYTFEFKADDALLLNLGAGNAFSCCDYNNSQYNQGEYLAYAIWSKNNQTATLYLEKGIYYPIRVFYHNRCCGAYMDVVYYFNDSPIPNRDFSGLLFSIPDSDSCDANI
glycan array binding signal (z-score): 2.49
--
binder: Epa19 (Candida glabrata) (protein) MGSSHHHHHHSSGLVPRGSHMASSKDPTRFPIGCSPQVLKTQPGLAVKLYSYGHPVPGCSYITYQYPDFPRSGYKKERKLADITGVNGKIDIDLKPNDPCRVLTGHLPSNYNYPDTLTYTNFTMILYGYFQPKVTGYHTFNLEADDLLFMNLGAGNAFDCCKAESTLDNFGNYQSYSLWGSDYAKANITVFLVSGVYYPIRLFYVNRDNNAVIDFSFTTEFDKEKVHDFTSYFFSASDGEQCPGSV
glycan array binding signal (z-score): 2.57
--
binder: AFCNVH (Aspergillus fumigatus) (protein) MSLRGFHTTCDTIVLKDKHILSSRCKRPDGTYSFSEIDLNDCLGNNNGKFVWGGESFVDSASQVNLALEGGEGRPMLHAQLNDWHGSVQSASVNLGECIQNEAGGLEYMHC
glycan array binding signal (z-score): -0.233

In the following, a different binder is considered.
What does the record list as glycan array binding signal (z-score) for Epa12 (Candida glabrata) (protein) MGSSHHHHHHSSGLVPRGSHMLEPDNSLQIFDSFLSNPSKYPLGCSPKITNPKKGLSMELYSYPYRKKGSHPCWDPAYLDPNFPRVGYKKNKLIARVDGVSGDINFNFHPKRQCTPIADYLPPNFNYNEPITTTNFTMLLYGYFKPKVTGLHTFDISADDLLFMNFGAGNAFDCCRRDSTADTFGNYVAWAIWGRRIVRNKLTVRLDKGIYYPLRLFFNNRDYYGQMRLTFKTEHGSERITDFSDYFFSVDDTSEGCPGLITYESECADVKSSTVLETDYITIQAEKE ?
-0.132

The reported numbers originate from the supplement of paper PMC8728848.
